Molecular target: Melanocyte-stimulating hormone receptor (Mus musculus, UniProt Q01727)
Sequence (Q01727 whole entry): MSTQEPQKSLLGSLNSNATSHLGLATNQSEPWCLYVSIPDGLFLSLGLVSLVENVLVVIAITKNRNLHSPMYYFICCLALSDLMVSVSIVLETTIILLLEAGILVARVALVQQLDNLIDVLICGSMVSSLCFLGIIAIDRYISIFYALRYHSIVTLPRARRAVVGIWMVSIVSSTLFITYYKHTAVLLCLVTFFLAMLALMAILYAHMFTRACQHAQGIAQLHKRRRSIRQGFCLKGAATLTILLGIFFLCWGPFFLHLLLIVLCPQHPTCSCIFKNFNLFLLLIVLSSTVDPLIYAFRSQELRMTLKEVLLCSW
Test: Activity at mouse MC1R expressed in HEK293 cells assessed as cAMP accumulation by CRE/beta-galactosidase reporter gene assay
Format: functional, cell-based
assay-endpoint: EC50 (nM)

>  <smiles-representation>
CCCC[C@H](NC(C)=O)C(=O)N[C@H]1CCn2cc(nn2)CC[C@@H](C(N)=O)NC(=O)[C@H](Cc2c[nH]c3ccccc23)NC(=O)[C@H](CCCNC(=N)N)NC(=O)[C@@H](Cc2ccccc2)NC(=O)[C@H](Cc2cnc[nH]2)NC1=O

>  <study-system>
Melanocyte-stimulating hormone receptor (Mus musculus, UniProt Q01727)

>  <units-of-measure>
nM

>  <EC50>
0.2

$$$$

[I] CCCC[C@H](NC(C)=O)C(=O)N[C@H]1Cn2cc(nn2)CCCC[C@@H](C(N)=O)NC(=O)[C@H](Cc2c[nH]c3ccccc23)NC(=O)[C@H](CCCNC(=N)N)NC(=O)[C@@H](Cc2ccccc2)NC(=O)[C@H](Cc2cnc[nH]2)NC1=O
[II] CCCC[C@H](NC(C)=O)C(=O)N[C@H]1CCc2cn(nn2)CC[C@@H](C(N)=O)NC(=O)[C@H](Cc2c[nH]c3ccccc23)NC(=O)[C@H](CCCNC(=N)N)NC(=O)[C@@H](Cc2ccccc2)NC(=O)[C@H](Cc2cnc[nH]2)NC1=O
Prompt line: Out of I and II , name the one with the higher EC50. Respond using the label that marks the chosen record.
Response line: I

---

Biological target: Melanocyte-stimulating hormone receptor (Mus musculus, UniProt Q01727)
Test: Activity at mouse MC1R expressed in HEK293 cells assessed as cAMP accumulation by CRE/beta-galactosidase reporter gene assay
pEC50: −log10 of the molar value. Where a SMILES comes first, the peptide text is derived from it. Bridges are numbered along the chain shown (N, C = ends). Triazole bridges read from a SMILES are 1,4-linked. [ ]: non-standard residue; d: D form. Lys(N3) = [N-]=[N+]=NCCCC[C@H](N)C(=O)O; Nle = CCCC[C@H](N)C(=O)O; Pra = C#CC[C@H](N)C(=O)O
assay-endpoint: pEC50

Worked cases, pEC50 given:
>  <compound>
CCCC[C@H](NC(C)=O)C(=O)N[C@H]1CCn2cc(nn2)CCC[C@@H](C(N)=O)NC(=O)[C@H](Cc2c[nH]c3ccccc23)NC(=O)[C@H](CCCNC(=N)N)NC(=O)[C@@H](Cc2ccccc2)NC(=O)[C@H](Cc2cnc[nH]2)NC1=O

>  <measured-result>
10.13

$$$$
>  <compound>
CCCCCC[C@H](NC(=O)[C@H](Cc1c[nH]c2ccccc12)NC(=O)[C@H](CCCNC(=N)N)NC(=O)[C@@H](Cc1ccccc1)NC(=O)[C@H](Cc1cnc[nH]1)NC(=O)[C@H](CN=[N+]=[N-])NC(=O)[C@H](CCCC)NC(C)=O)C(N)=O

>  <measured-result>
9.28

$$$$
>  <compound>
CCCC[C@H](NC(C)=O)C(=O)N[C@H]1CCCc2cn(nn2)CC[C@@H](C(N)=O)NC(=O)[C@H](Cc2c[nH]c3ccccc23)NC(=O)[C@H](CCCNC(=N)N)NC(=O)[C@@H](Cc2ccccc2)NC(=O)[C@H](Cc2cnc[nH]2)NC1=O

>  <measured-result>
10.00

$$$$
>  <compound>
CCCC[C@H](NC(C)=O)C(=O)N[C@H]1CCc2cn(nn2)CCC[C@@H](C(N)=O)NC(=O)[C@H](Cc2c[nH]c3ccccc23)NC(=O)[C@H](CCCNC(=N)N)NC(=O)[C@@H](Cc2ccccc2)NC(=O)[C@H](Cc2cnc[nH]2)NC1=O

>  <measured-result>
9.96

$$$$
>  <compound>
CCCC[C@H](NC(C)=O)C(=O)N[C@H]1Cc2cn(nn2)CCCC[C@@H](C(N)=O)NC(=O)[C@H](Cc2c[nH]c3ccccc23)NC(=O)[C@H](CCCNC(=N)N)NC(=O)[C@@H](Cc2ccccc2)NC(=O)[C@H](Cc2cnc[nH]2)NC1=O

>  <measured-result>
8.29

$$$$
>  <compound>
CCCC[C@H](NC(C)=O)C(=O)N[C@H]1CCCCn2cc(nn2)C[C@@H](C(N)=O)NC(=O)[C@H](Cc2c[nH]c3ccccc23)NC(=O)[C@H](CCCNC(=N)N)NC(=O)[C@@H](Cc2ccccc2)NC(=O)[C@H](Cc2cnc[nH]2)NC1=O (Ac-[Nle][Lys(N3)]H[dF]RW[Pra]-NH2; triazole 2-7)

>  <measured-result>
9.07

$$$$

[I] CCCC[C@H](NC(C)=O)C(=O)N[C@H]1CCCCc2cn(nn2)C[C@@H](C(N)=O)NC(=O)[C@H](Cc2c[nH]c3ccccc23)NC(=O)[C@H](CCCNC(=N)N)NC(=O)[C@@H](Cc2ccccc2)NC(=O)[C@H](Cc2cnc[nH]2)NC1=O
[II] CCCC[C@H](NC(C)=O)C(=O)N[C@H]1CCCn2cc(nn2)CC[C@@H](C(N)=O)NC(=O)[C@H](Cc2c[nH]c3ccccc23)NC(=O)[C@H](CCCNC(=N)N)NC(=O)[C@@H](Cc2ccccc2)NC(=O)[C@H](Cc2cnc[nH]2)NC1=O
Prompt line: Could you please tell me which of these two has the higher pEC50: I or II ? // caller expects the label of the chosen entry
Response line: I
(I: 10.06, II: 9.15)
